# Target Of Assay: human TLR4 (Homo sapiens, UniProt O00206+Q9Y6Y9)
# Construct: expressed in transfected cells; host or cells: HEK293 with stably integrated pNiFty2-SEAP reporter
# Sequence (O00206 24-839): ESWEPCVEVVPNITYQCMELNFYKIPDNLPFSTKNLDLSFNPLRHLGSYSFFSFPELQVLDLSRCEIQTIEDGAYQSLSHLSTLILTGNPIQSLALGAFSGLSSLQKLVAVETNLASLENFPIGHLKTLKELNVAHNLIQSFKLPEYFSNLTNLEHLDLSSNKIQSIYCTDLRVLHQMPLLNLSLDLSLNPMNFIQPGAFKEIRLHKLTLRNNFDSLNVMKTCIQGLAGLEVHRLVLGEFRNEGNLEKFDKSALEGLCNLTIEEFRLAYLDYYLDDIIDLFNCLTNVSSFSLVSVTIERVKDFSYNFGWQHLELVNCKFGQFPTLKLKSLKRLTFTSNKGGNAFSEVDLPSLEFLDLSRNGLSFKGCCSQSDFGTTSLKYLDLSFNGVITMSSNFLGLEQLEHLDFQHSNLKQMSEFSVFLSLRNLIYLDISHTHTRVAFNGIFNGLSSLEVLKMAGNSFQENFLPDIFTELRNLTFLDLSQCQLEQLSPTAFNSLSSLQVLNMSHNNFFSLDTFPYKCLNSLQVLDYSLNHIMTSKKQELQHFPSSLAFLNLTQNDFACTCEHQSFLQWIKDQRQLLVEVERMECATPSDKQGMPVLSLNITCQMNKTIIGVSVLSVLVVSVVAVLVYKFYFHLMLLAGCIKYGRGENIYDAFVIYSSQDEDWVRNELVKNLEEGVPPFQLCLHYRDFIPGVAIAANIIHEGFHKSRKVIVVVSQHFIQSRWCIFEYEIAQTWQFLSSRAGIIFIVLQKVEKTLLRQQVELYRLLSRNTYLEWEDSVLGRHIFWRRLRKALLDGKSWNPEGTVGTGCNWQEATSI
# Sequence (Q9Y6Y9 19-160): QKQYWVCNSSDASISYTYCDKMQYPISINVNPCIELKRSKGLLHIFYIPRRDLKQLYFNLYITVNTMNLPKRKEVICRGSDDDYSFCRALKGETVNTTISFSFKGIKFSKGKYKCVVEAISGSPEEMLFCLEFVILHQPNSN
# Procedure Summary: Human TLR4 NFκB SEAP reporter gene assay in hTLR4-transfected HEK293 cells
# Format: cell-based
# Condition Set: NFκB SEAP reporter, hTLR4-transfected HEK293 cells, 20 h; read-out: Human TLR4 pEC50 (converted)
Readout Type: EC50 (nM)
The response must be a number in nM with no trailing unit.

// query EC50 value for entry COc1ccc(N(C(=O)c2[nH]c(-c3ccccc3)cc2C)C(C(=O)NC2CCCC2)c2ccncc2)cc1 (stereo not drawn)
2510

Reported EC50 for C#Cc1ccc(C(C(=O)NC2CCCC2)N(C(=O)c2ccc(-c3ccccc3)[nH]2)c2ccc(OC)cc2)cc1 (stereo not drawn) : what is it?
1000

Which EC50 is reported for this compound? COc1ccc(N(C(=O)c2cc(-c3ccccc3)n(-c3ccccc3)n2)C(C(=O)NC2CCCC2)c2ccncc2)cc1 (stereo not drawn)
398
